// values below are reported GI50
# Tested on: M14 melanoma
# Assay Name: NCI tumour cell line growth inhibition, 48 h
Parameter: GI50

[[record]]
compound = "C=C(CC(=O)O)C(=O)O (tested in a mixture with another compound)"
study_system = "M14 melanoma"
reported = "> 50 µg/mL"

[[record]]
compound = "N#Cc1c(N)nc(N)nc1N[C@H](c1nc2c(F)ccc(Cl)c2c(=O)n1-c1cccnc1)C1CC1"
study_system = "M14 melanoma"
reported = "13.6 µM"

[[record]]
compound = "CCN(CC)CCN(Cc1ccc(F)cc1)c1ccc(CO)c(Cl)c1"
study_system = "M14 melanoma"
reported = "17.2 µM"

[[record]]
compound = "Cc1ccc(C2=C(c3ccc(C)cc3)C3(c4ccc(C)cc4)C4C(=O)c5ccccc5C(=O)C4C2(c2ccc(C)cc2)S3=O)cc1 (centres undefined)"
study_system = "M14 melanoma"
reported = "> 100 µM"

[[record]]
compound = "COc1cc2ncnc(Nc3ccc4c(cnn4Cc4ccccc4)c3)c2cc1OC"
study_system = "M14 melanoma"
reported = "> 25 µM"

[[record]]
compound = "Cc1cc(N2CCCC2)nc(NCc2cc(Nc3ccnc4cc(Cl)ccc34)ccc2F)n1"
study_system = "M14 melanoma"
reported = "1.37 µM"

[[record]]
compound = "c1cncc(C2Nc3cccc4cccc(c34)N2)c1"
study_system = "M14 melanoma"
reported = "46 µM"

[[record]]
compound = "CC(=O)[CH-]C(=O)c1ccccc1.CC(=O)[CH-]C(=O)c1ccccc1.Cl.[O-]c1ccccn1.[O-]c1ccccn1.[Ti+4]"
study_system = "M14 melanoma"
reported = "> 100 µM"

[[record]]
compound = "Cc1[nH]c(-c2nc3ccccc3[nH]2)c(C)c1C(=O)NC(C)C1CCCCC1 (centres undefined)"
study_system = "M14 melanoma"
reported = "3.28 µM"


---

# System: LOX IMVI melanoma
# Assay Name: NCI tumour cell line growth inhibition, 48 h; in the data active means GI50 below about 0.43 µM; inactive means the rest
Labels: active, inactive

[[record]]
molecule = "CN1CCN(c2nc(NCCCNc3ccnc4cc(Cl)ccc34)c3ccccc3n2)CC1"
classification = "inactive"

[[record]]
molecule = "CCOC(=O)c1c(C)nc2c(c1N)CC(=O)N2CCc1ccccc1"
classification = "active"

[[record]]
molecule = "CCCNC(=O)c1ccc(Cl)cc1Cl"
classification = "inactive"

[[record]]
molecule = "C/C(=N\\NC(=S)N1CC2CCC(CC2)C1)c1cccc(C)n1"
classification = "active"

[[record]]
molecule = "CCC(=O)Nc1ccccc1C#C/C=C\\C#Cc1ccccc1C(F)(F)F"
classification = "inactive"

[[record]]
molecule = "COc1cc2ncnc(Nc3ccc4c(cnn4Cc4ccccc4)c3)c2cc1OC"
classification = "inactive"

[[record]]
molecule = "Cn1c2ccccc2c2c3[nH][nH]c(=O)c3c3c4ccccc4[nH]c3c21"
classification = "inactive"

[[record]]
molecule = "C=C(CC(=O)O)C(=O)O (tested in a mixture with another compound)"
classification = "inactive"

[[record]]
molecule = "COc1cc(-c2n/c(=C\\c3c(O)[nH]c4cc(Cl)ccc34)cc3c2=Nc2ccccc2-3)cc(OC)c1OC"
classification = "inactive"

[[record]]
molecule = "CCCCNC(=O)c1cc(NCc2cc(O)ccc2O)ccc1O"
classification = "inactive"


---

# Test system: A549 NSCLC
# Assay Name: NCI tumour cell line growth inhibition, 48 h
// values below are reported TGI
Parameter: TGI

[[record]]
molecule = "N#Cc1c(O)c(N=Nc2ccc(Cl)cc2)c(=O)n2c1[nH]c1ccccc12"
reported = "> 100 µM"

[[record]]
molecule = "CCCCN[C@H]1C2C3CC4C5CC(C42)C1(C)C53 (stereo partly drawn)"
reported = "> 100 µM"

[[record]]
molecule = "COc1cc([C@@]23OC[C@@H]4[C@@H](OC[C@@H]42)c2cc4c(cc23)OCO4)cc(OC)c1OC"
reported = "> 100 µM"

[[record]]
molecule = "CCC(=O)Nc1ccccc1C#C/C=C\\C#Cc1ccccc1C(F)(F)F"
reported = "> 32.6 µM"

[[record]]
molecule = "CCOC(=O)c1nc2ccccc2nc1Oc1cc(OC)c(OC)c(OC)c1"
reported = "> 100 µM"

[[record]]
molecule = "Oc1cccc(/C=N/Nc2nnc(N/N=C/c3cccc(O)c3)c3ccccc23)c1"
reported = "57.5 µM"

[[record]]
molecule = "CC(C)C(C/C=C1/CC(CO)(COC(=O)c2ccccc2)OC1=O)C(C)C (stereo not drawn)"
reported = "26.5 µM"

[[record]]
molecule = "Clc1ccc2nc(-c3ccccc3)nc(Cl)c2c1"
reported = "> 100 µM"

[[record]]
molecule = "CCCCOCc1cc(CN2CCN(C)CC2)c(O)c2ncccc12"
reported = "> 100 µM"

[[record]]
molecule = "C=C1C(=O)OC2CC(=C)C3CC=C(C)C3CC12 (stereo not drawn)"
reported = "> 100 µM"

[[record]]
molecule = "CCCCNC(=O)c1cc(NCc2cc(O)ccc2O)ccc1O"
reported = "48.2 µM"

[[record]]
molecule = "C=CC1(NS(=O)(=O)c2ccc(C)cc2)CCC(C(C)(C)C)CC1 (stereo not drawn)"
reported = "> 100 µM"

[[record]]
molecule = "CCc1cc2ncc(CN3CCN(c4ccc(C(=O)NC)nc4)CC3)cc2[nH]c1=O"
reported = "> 100 µM"

[[record]]
molecule = "C/C(=N\\NC(=S)N1CCCCCCCCCCCC1)c1ccccn1"
reported = "1.35 µM"

[[record]]
molecule = "CC(=O)C1=C(C)N(C)C2(O)C=CC(=O)C3=C(O)c4ccccc4C(=O)C312 (stereo not drawn)"
reported = "> 100 µM"

[[record]]
molecule = "CCN(CC)C(=O)N1CCN(C=S)CC1"
reported = "> 100 µM"

[[record]]
molecule = "O=c1c2cc(Cl)ccc2[nH]c2cc(O)cc(O)c12"
reported = "> 10 µM"

[[record]]
molecule = "CN(C)S(=O)(=O)n1cnc(CO)c1"
reported = "> 100 µM"

[[record]]
molecule = "COC1=CC(=O)c2c(c(COP(=O)(N(C)CCBr)N(C)CCBr)cn2C)C1=O"
reported = "0.659 µM"

[[record]]
molecule = "Oc1cccc2cc(Br)cnc12"
reported = "> 100 µM"

[[record]]
molecule = "O=C(CC1(O)C(=O)Nc2ccccc21)c1ccc(O)cc1 (stereo not drawn)"
reported = "> 100 µM"

[[record]]
molecule = "COc1ccccc1N=N/C(=N\\NC(=O)c1ccc(C)cc1)c1ccc(N(CCC#N)CCC#N)cc1C"
reported = "> 100 µM"

[[record]]
molecule = "CCOC(=O)[C@H]1Nc2ccc([N+](=O)[O-])cc2C2c3ccccc3CC21 (stereo partly drawn)"
reported = "91.2 µM"

[[record]]
molecule = "CN[C@@H](C)[C@H](N)c1ccccc1"
reported = "> 100 µM"

[[record]]
molecule = "COc1cc(-c2cc(/C=C/C(=O)c3ccc(Cl)c(Cl)c3)[nH]n2)cc(OC)c1OC"
reported = "> 100 µM"

[[record]]
molecule = "COC(=O)c1c[nH]c2c1-c1cc(C(=O)OCc3ccccc3)n(S(=O)(=O)c3ccc(C)cc3)c1C(=O)C2=O"
reported = "1.97 µM"

[[record]]
molecule = "Cc1[nH]c(-c2nc3ccccc3[nH]2)c(C)c1C(=O)NC(C)C1CCCCC1 (stereo not drawn)"
reported = "34 µM"

[[record]]
molecule = "C/C(=N\\NC(=S)N1CC2CCC(CC2)C1)c1cccc(C)n1"
reported = "12.9 µM"

[[record]]
molecule = "CCOC(=O)c1oc2ccc([N+](=O)[O-])c3c2c1CCC3"
reported = "> 100 µM"

[[record]]
molecule = "O=c1[nH]nc(Cn2c3ccc(Br)cc3c3nc4ccccc4nc32)n1C1CCCCC1"
reported = "> 100 µM"

[[record]]
molecule = "CC1(C)C2CC3C4CC5(Nc6ccccc6C5N41)[C@]3(C)CC2=O (stereo partly drawn)"
reported = "> 50 µM"

[[record]]
molecule = "Cc1cc(C(=O)NC(CCC(=O)O)C(=O)O)sc1CCC1CNc2nc(N)[nH]c(=O)c2C1 (stereo not drawn)"
reported = "> 100 µM"

[[record]]
molecule = "C[C@]12CC[C@H]3[C@@H](C[C@@H]4SC(Nc5ccccc5)=N[C@@]45CC(O)CC[C@]35C)[C@@H]1CCC2O (stereo partly drawn)"
reported = "6.02 µM"

[[record]]
molecule = "O=C(Cc1nc2ncccc2[nH]c1=O)c1c[nH]c2ccccc12"
reported = "47.8 µM"

[[record]]
molecule = "CC1(C)C(=O)/C=C\\C(=O)C(C)(C)C(=O)/C=C\\C(=O)C(C)(C)C(=O)/C=C\\C(=O)C(C)(C)C(=O)/C=C\\C1=O"
reported = "> 100 µM"

[[record]]
molecule = "CCCCCCOc1ccc(C(=O)N(C)O)cc1"
reported = "56.6 µM"

[[record]]
molecule = "COc1ccc2c(c1)CC1c3c(ccc(OC)c3O)CC2N1C (stereo not drawn)"
reported = "> 100 µM"

[[record]]
molecule = "NC(Cc1ccc(S(=O)(=O)O)cc1)C(=O)NC(Cc1ccc(S(=O)(=O)O)cc1)C(=O)NC(Cc1ccc(S(=O)(=O)O)cc1)C(=O)O (stereo not drawn)"
reported = "> 100 µM"

[[record]]
molecule = "COc1cc2c(cc1OC)NC(=O)NC(Cc1ccc3c(c1)OCO3)CC2 (stereo not drawn)"
reported = "> 100 µM"

[[record]]
molecule = "Cc1ccc(NC(=S)SCCC(=O)O)cc1"
reported = "> 100 µM"

[[record]]
molecule = "O=S1(=O)CCCS(=O)(=O)C(c2ccccc2)=C1c1ccccc1"
reported = "> 100 µM"

[[record]]
molecule = "C(=N\\OCCc1ccccc1)/c1cccnc1"
reported = "> 100 µM"

[[record]]
molecule = "CC(=O)ON1C(=O)c2cccc3cccc(c23)C1=O"
reported = "> 100 µM"

